assay notes: chemical genetic growth profiling, strain panel (AID 1159580);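 further: tested at 20 µM; growth read once vehicle control cultures reached saturation at 30 °C; 1 = growth at the plate median or of vehicle wells; lower values mean less growth of the strain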
test context: S. cerevisiae deletion strains, growth OD, locus YCL061C, strain MRC1 (second series), active compounds read low
Out of some 5,500 compounds screened, about 2,000 (36%) were called active. About 18% were inconclusive and are not listed. Some of the results follow.
Quick reference for normalized growth among some molecules
# respond with the number and nothing more

1. NCC(O)c1ccc(O)cc1 (stereo not drawn) :: 1.01
2. COc1cc(C(O)CN)ccc1O (stereo not drawn) :: 1.01

Field: next molecule
[in] Note normalized growth for the molecule shown: "CC(C)NC[C@H](O)c1ccc(O)c(O)c1"
[out] 1

* * *

assay notes: chemical genetic growth profiling, strain panel (AID 1159580)
test context: S. cerevisiae deletion strains, growth OD, locus YER111C, strain swi4, active compounds read low
Out of some 5,500 compounds screened, about 2,000 (36%) were called active. Not shown: some 18% with an inconclusive outcome. The list shows a part of the results.
measurement kind: normalized growth
Field format: numeric only.

[in] Given the compound CCCCC(CC)CN1CN(CC(CC)CCCC)CC(C)(N)C1 (configuration not stated) , write its reported normalized growth.
[out] 0.0661

[in] In one line, give reported normalized growth of the entry "CN[C@H](CC(=O)O)C(=O)O" .
[out] 1.02

[in] Output measured normalized growth for this item: CC(=O)O[C@H]1C[C@@H](OC(C)=O)C(C)(C)C2C[C@@H](OC(C)=O)[C@@]3(C)C4=CC(=O)O[C@@H](c5ccoc5)[C@]4(C)CCC3[C@]21C (some centres not stated)
[out] 1

[in] Given COC(=O)C[C@H]1C(C)(C)C(=O)[C@@H]2CC3=C4CC(=O)O[C@@H](c5ccoc5)[C@]4(C)CCC3[C@@]1(C)C2=O (some centres not stated) , respond with its normalized growth.
[out] 0.985

[in] Look up and state reported normalized growth for "COc1c2c(cc3c1OCO3)CCN(C)C2"
[out] 1.01

[in] Determine its reported normalized growth: CCCC(C)C1(CC)C(=O)NC(=O)NC1=O (configuration not stated)
[out] 0.988

[in] Quick one: give measured normalized growth for C=C(NC(=O)C(=C)NC(=O)c1csc(C2=NC3c4csc(n4)C4NC(=O)c5csc(n5)C(C(C)(O)C(C)O)NC(=O)C5CSC(=N5)C(=CC)NC(=O)C(C(C)O)NC(=O)c5csc(n5)C3(CC2)NC(=O)C(C)NC(=O)C(=C)NC(=O)C(C)NC(=O)C(C(C)CC)NC2C=Cc3c(C(C)O)cc(nc3C2O)C(=O)OC4C)n1)C(N)=O (configuration not stated)
[out] 1.03

* * *

assay notes: chemical genetic growth profiling, strain panel (AID 1159580)
test context: S. cerevisiae deletion strains, growth OD, locus YDR150W, strain NUM1, active compounds read low
Out of some 5,500 compounds screened, about 2,000 (36%) were called active. About 18% were inconclusive and are not listed. Some of the results follow.
The entries below come with measured normalized growth values attached.
Lab note: jot the number down without any unit.

Here is how some compounds turned out for normalized growth.
1. NC(N)=NC(N)=Nc1cc(C(F)(F)F)cc(C(F)(F)F)c1 :: 0.998
2. CC(=O)N/C(=C/c1ccc2c(c1)OCO2)C(=O)O :: 0.915
3. CCC(C(=O)Nc1ccc(C(F)(F)F)cc1)c1ccccc1 (configuration not stated) :: 0.952
4. NC(=NS(=O)(=O)c1cc(C(F)(F)F)cc(C(F)(F)F)c1)c1cccs1 :: 0.969
5. CC[N+](CC)(CC)CC(=O)Nc1c(C)cccc1C :: 1

[in] Quick one: give measured normalized growth for "COc1cc(CNC(=O)CCCCCCC(C)C)ccc1O"
[out] 1

[in] Consider the compound "Cc1ccc2cc3c(ccc4ccccc43)c3c2c1CC3" . State its measured normalized growth.
[out] 1

[in] Retrieve normalized growth measured for "CCCCCCNC(=O)NCCCCCC" and print it.
[out] 0.931

[in] Return normalized growth for the following compound: "COc1cc(OC)c2c(=O)c(-c3ccccc3)c(C)oc2c1OC"
[out] 1.02

[in] Look up and state reported normalized growth for NCC(CC(=O)O)c1ccc(Cl)s1 (configuration not stated)
[out] 1

[in] Using the record for O=C1OC2COC(=O)C2C=C1NC(=O)c1ccc(Cl)cc1 (configuration not stated) , state its measured normalized growth.
[out] 0.939

[in] // Input: "NCCCC[C@H](N[C@@H](CCc1ccccc1)C(=O)O)C(=O)N1CCC[C@H]1C(=O)O" . Output its normalized growth only.
[out] 0.99

* * *

Measured normalized growth of individual entries
assay notes: chemical genetic growth profiling, strain panel (AID 1159580)
test context: S. cerevisiae deletion strains, growth OD, locus YAL026C, strain drs2, active compounds read low
The campaign covered roughly 5,500 compounds. About 2,000 (36%) were called active. Inconclusive results (about 18%) are left out. The list shows a part of the results.
# output: bare number, no unit

Reference set, count: 3
1) C[C@H]1[C@H]2CCC3C4CC=C5C[C@@H](N(C)C)CC[C@]5(C)C4CC[C@@]32CN1C (stereo partly specified) :: 0.997
2) Nc1ccc(S(=O)(=O)Nc2ccc(Cl)nn2)cc1 :: 0.996
3) Oc1c(Cl)cc(Cl)c2cccnc12 :: 0.0607

[in] Name the recorded normalized growth of the item CCC(Cc1c(I)cc(I)c(N)c1I)C(=O)O (stereo unspecified) in your answer.
[out] 0.889

[in] Read the entry "Oc1ccc(Cl)c2cccnc12" and write its reported normalized growth.
[out] 0.0768

[in] Provide only the value of recorded normalized growth for CC(=O)O[C@@H]1CC2C(C)(C)C=CC(=O)[C@]2(C)C2CC[C@@]3(C)[C@H](c4ccoc4)OC(=O)C4OC43[C@@]21C (stereo partly specified)
[out] 1

[in] Output normalized growth of "C/C=C/c1ccc2c(c1)OCO2"
[out] 1.02

* * *

assay notes: chemical genetic growth profiling, strain panel (AID 1159580);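 further: tested at 20 µM; growth read once vehicle control cultures reached saturation at 30 °C; 1 = growth at the plate median or of vehicle wells; lower values mean less growth of the strain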
test context: S. cerevisiae deletion strains, growth OD, locus YNL248C, strain rpa49
The whole screen tested about 5,500 compounds, of which about 2,000 (36%) were called active. About 18% were inconclusive and are not listed. Cut-off read from the data, not from the text of the source: active = normalized growth mostly below about 0.91 (no sharp cut-off); inconclusive = no clear call, values can overlap the other calls; inactive = mostly above about 0.92. This is one part of the list.
Outcome (select one): active, inactive

1) CC/C(=C(\c1ccccc1)c1ccc(OCCN(C)C)cc1)c1ccccc1 :: active
2) CO[C@H]1/C=C/O[C@@]2(C)Oc3c(C)c(O)c4c(O)c(c5c(nc6cc(C)ccn65)c4c3C2=O)NC(=O)/C(C)=C\C=C\[C@H](C)[C@H](O)[C@@H](C)C(O)[C@@H](C)[C@H](OC(C)=O)[C@@H]1C (some centres undefined) :: inactive
3) C1CCN2CC3CC(CN4CCCCC34)C2C1 (centres undefined) :: inactive

Field: next compound
[in] Status in this test for O=C1CCCC2C3CC(CN12)[C@@H]1CCCCN1C3 (some centres undefined) ?
[out] inactive

* * *

assay notes: chemical genetic growth profiling, strain panel (AID 1159580);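 further: tested at 20 µM; growth read once vehicle control cultures reached saturation at 30 °C; 1 = growth at the plate median or of vehicle wells; lower values mean less growth of the strain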
test context: S. cerevisiae deletion strains, growth OD, locus YLR039C, strain RIC1, active compounds read low
Hit rate of the full screen: of about 5,500 compounds, about 2,000 (36%) were called active. About 18% were inconclusive and are not listed. Some of the results follow.
Form field: normalized growth (one value per entry).
Form field (numeric): enter value without unit.

Consider the following illustrative entries.
1) O=C(OC1Cc2c(O)cc(O)cc2OC1c1cc(O)c(O)c(O)c1-c1c(C2Oc3cc(O)cc(O)c3CC2OC(=O)c2cc(O)c(O)c(O)c2)cc(O)c(O)c1O)c1cc(O)c(O)c(O)c1 (stereo unspecified) :: 1.04
2) OC[C@@H](O)[C@@H](O[C@@H]1O[C@H](CO)[C@@H](O)[C@H](O)[C@H]1O)[C@H](O)[C@@H](O)CO :: 1.06
3) O=C(N/N=C\C=C\c1ccccc1)c1ccccc1-n1cccc1 :: 0.87
4) COc1ccc(OC)c(S(=O)(=O)N2CCc3cc(OC)c(OC)cc3C2C)c1 (stereo unspecified) :: 0.948
5) O=C1O[C@H](C(O)CO)C(O)=C1O (stereo partly specified) :: 1.03

[in] For "O=C(O)/C=C/C=C/c1ccccc1" , write its normalized growth.
[out] 0.832

[in] Read off the recorded normalized growth for "Cc1[nH]ncc1-c1ccccc1"
[out] 0.873

[in] Read the entry "CS(=O)(=O)CCCCN=C=S" and write its reported normalized growth.
[out] 0.758

[in] Answer with reported normalized growth of "NC(=O)c1ccccc1N1CCCCC1"
[out] 1.02

[in] Report normalized growth for "CC(=O)NCCCCCC(=O)O"
[out] 1.04

[in] Supply reported normalized growth belonging to this compound: "CC(C)(C)NC[C@@H](O)COc1nsnc1N1CCOCC1"
[out] 1.01

* * *

assay notes: chemical genetic growth profiling, strain panel (AID 1159580);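 further: tested at 20 µM; growth read once vehicle control cultures reached saturation at 30 °C; 1 = growth at the plate median or of vehicle wells; lower values mean less growth of the strain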
test context: S. cerevisiae deletion strains, growth OD, locus YLR371W, strain rom2
About 2,000 (36%) of roughly 5,500 compounds were called active. Inconclusive results (about 18%) are left out. Cut-off read from the data, not from the text of the source: active = normalized growth mostly below about 0.91 (no sharp cut-off); inconclusive = no clear call, values can overlap the other calls; inactive = mostly above about 0.92. This is one part of the list.
Output constraint: value belongs to YES for active, NO for inactive

Known results for compounds:
1. Nc1ccc(S(=O)(=O)Nc2ccc(Cl)nn2)cc1 :: NO
2. CC1(C)C(C(Cl)Cl)C2(Cl)C(Cl)C(Cl)C1(Cl)C2(Cl)Cl (configuration not stated) :: NO
3. NCCNC(=O)c1ccc(Cl)cc1 :: NO
4. Oc1c(I)cc(I)c2cccnc12 :: YES
5. O=C(O)c1cccnc1Nc1cccc(C(F)(F)F)c1 :: NO
6. CC(=O)Oc1ccc(Cl)c2cccnc12 :: YES
7. CN[C@H](CC(=O)O)C(=O)O :: NO
8. O=C1C=CC2=C3c4cc(O)c(O)cc4CC3(O)COC2=C1O (configuration not stated) :: NO
9. O=C(O[C@@H]1Cc2c(O)cc(O)cc2O[C@@H]1c1cc(O)c(O)c(O)c1-c1c([C@H]2Oc3cc(O)cc(O)c3C[C@H]2O)cc(O)c(O)c1O)c1cc(O)c(O)c(O)c1 :: YES
10. CSCCC(NC=O)C(=O)NC(C)C(=O)O (configuration not stated) :: NO

[in] Recorded test outcome, item "COC(=O)Oc1ccccc1C(=O)O"
[out] NO

[in] Record lookup: outcome of this test for "O=C(O)c1ccccc1Nc1cccc(C(F)(F)F)c1" ?
[out] NO
